Assay: xn = mol fraction of the nth substance listed
Conditions: 318.15 K; 101 kPa; x2 = 0.9
Assignment: determine reported viscosity for the given compounds.
Numbers only, in mPa·s.

{"columns": ["COMPOUND", "viscosity, mPa·s"],
 "data": [
  ["CCCCCCCO + CCCCO", 1.772],
  ["CCCCCCCO + CCCO", 1.382],
  ["CCCCCCCO + CO", 0.5997]
]}

Would you kindly look at the next entry?
Challenge: // fetch viscosity given entry CCCCCCCO + CCO
Response given: 0.9796

###

Assignment: determine reported viscosity for the given molecules.
Conditions: 298.15 K; 101 kPa
± gives the uncertainty stated by the source.

Known viscosity results, listed for orientation:
{"columns": ["MOLECULE", "RECORDED RESULT"],
 "data": [
  ["CC(=O)O.NCCO", "3167 ± 420 mPa·s"],
  ["CC(C)=CC(=O)C=C(C)C", "1.394 ± 0.017 mPa·s"],
  ["CS(C)=O", "1.79 ± 0.17 mPa·s"],
  ["C1CCCCCCC1", "2.25 ± 0.022 mPa·s"]
]}

Lab note: each molecule below needs its viscosity filled in.
1. CC(=O)CC(C)(C)O
2. CC1(C)OCC(CO)O1 (stereo unspecified)

Response given:
["2.902 ± 0.076 mPa·s", "9.643 ± 0.23 mPa·s"]

Origin of the recorded values: the CheMixHub viscosity set
